Data origin, for the record: PubChem BioAssay (NCI)

Test system: MOLT-4 leukemia
procedure-text: NCI tumour cell line growth inhibition, 48 h; in the data active means GI50 below about 0.43 µM; inactive means the rest
Reply using exactly one outcome from yes = active, no = inactive

A selection of reference data follows.
COc1ccc2c(c1)C(=O)c1c-2n(CCCN=[N+]=[N-])c(=O)c2cc(N(C)C)ccc12 : no
CN1CCN(c2ccc(NC(=O)c3nc4ccc5[nH]ncc5c4c4c3CCCC4)cc2C(F)(F)F)CC1 : no
COc1ccccc1/C=C/[N+](=O)[O-] : no
CCCc1c(CC)c(=N)c2ccccc2n1C : no
Cc1cc(/C=C\c2ccc3ccccc3[n+]2C)c(O)c2ncccc12 : yes

Moving on to another compound below.
Query: Can you look up the reported call for `CC1(C)CC[C@H](Nc2ncc(C(F)(F)F)c(-c3c[nH]c4c(P(C)(C)=O)c(C#N)ccc34)n2)CN1` for me?
Result: yes
